Overview of reported melting point across a group of compounds:

NNC(=O)CO    90 to 92 °C
O=C(O)c1cccc(NC(=O)c2ccc(F)cc2)c1    279 to 281 °C
CC(=O)OCC(=O)[C@@]1(O)CC[C@H]2[C@@H]3CCC4=CC(=O)CC[C@]4(C)[C@H]3[C@@H](O)C[C@@]21C    219 to 221 °C

Query: Bench note: what melting point did O=C(O)C1CCCN1C(=O)c1ccc([N+](=O)[O-])s1 (configuration not stated) show?
Result: 161 to 163 °C

Query: Moving on to O=C(O)COc1ccccc1OCc1ccc(F)cc1
Result: 108 to 110 °C

Query: Moving on to Nc1cccc(C=CC(=O)O)c1
Result: 173 to 175 °C

Query: Moving on to Cc1cccc(OCCNC(=O)C(C)Cl)c1 (configuration not stated)
Result: 57 to 59 °C

###

Overview of reported melting point across a group of compounds:

// known answers, use as guide
COc1ccc(C(=O)O)c(Cl)c1    209 to 211 °C
O=C(O)c1cc(S(=O)(=O)N2CCCC2)ccc1Cl    194 to 196 °C
O=C(O)C1CCCn2ccnc21 (stereo not drawn)    156 to 158 °C

Query: Bench note: what melting point did O=C(O)c1ccc(Cl)cc1N1CCCC1=O show?
Result: 218 to 220 °C

Query: Moving on to Nc1ncc(Cc2cccc(Cl)c2Cl)s1
Result: 140 to 142 °C

Query: Moving on to O=C(O)c1ccccc1Sc1ccc(Br)cn1
Result: 183 to 185 °C

Query: Moving on to Cn1c(C(F)(F)F)nc2cc(C(=O)O)ccc21
Result: 254 to 256 °C

Query: Moving on to Nc1ccc(N2CCCCC2)c(S(=O)(=O)Nc2ccc(Cl)cc2)c1
Result: 145 to 147 °C

Query: Moving on to N#Cc1cnn(-c2ccc(C(=O)O)cc2)c1N
Result: 289 to 291 °C

Query: Moving on to O=C(O)C(NCc1ccccc1)C1CC1 (stereo not drawn)
Result: 228 to 230 °C

###

reported-endpoint: melting point

// known answers, use as guide
Cc1c(-c2csc(N)n2)sc2ccccc12    170 to 172 °C
CCOC(=O)c1ccc(N2CC(N)C2)nc1    72 to 74 °C
O=C1CCc2cc(Br)c(F)cc2N1    210 to 212 °C
NC(=O)c1sccc1-c1ccccc1    114 to 116 °C
CC(Cl)C(=O)NCc1ccccc1 (centres undefined)    75 to 77 °C
O=C(O)Cc1csc(-c2cccc(Br)c2)n1    106 to 110 °C

Query: Bench note: what melting point did CN(CC(C)(C)C)C(=O)c1cccc(C(=O)O)c1 show?
Result: 132 to 134 °C

Query: Moving on to CCOC(=O)c1nnc(-c2ccccc2)o1
Result: 69 to 71 °C

Query: Moving on to O=[N+]([O-])c1cnc(Cl)c(Br)c1
Result: 54 to 58 °C

Query: Moving on to O=C(O)CCc1cc2ccccc2[nH]c1=O
Result: 227 to 229 °C

Query: Moving on to COc1ccc(-n2ccnc2S)c(C)c1
Result: 238 to 240 °C

###

Overview of reported melting point across a group of compounds:

// known answers, use as guide
O=Cc1cccc(OCC(=O)O)c1    111 to 113 °C
CCC(=O)c1ccc(Cl)c(Cl)c1O    98 to 100 °C
CNS(=O)(=O)Cc1ccc(C#N)cc1    154 to 158 °C
O=C(O)c1c(Cl)cc(C(F)(F)F)cc1Cl    140 to 142 °C
CCC1(c2ccc(O)cc2)NC(=O)NC1=O (stereo unspecified)    279 to 281 °C
NCc1ccc(S(=O)(=O)N2CCOCC2)cc1    121 to 123 °C
COc1ccc(C(=O)c2ccc(OC)cc2OC)cc1    69 to 73 °C
CCC1SC(N)=NC1=O (stereo unspecified)    188 to 190 °C
Cc1ccc2c(C(=O)CC#N)c[nH]c2c1    268 to 270 °C
Nc1ccc(S(N)(=O)=O)cc1F    166 to 168 °C

Query: Bench note: what melting point did CCOC(=O)C(=O)CC(=O)c1ccccc1OCC show?
Result: 91 to 93 °C

Query: Moving on to NCCc1ccc(CO)cc1
Result: 35 to 37 °C

Query: Moving on to CC(=O)c1cccc(N2CCCS2(=O)=O)c1
Result: 84 to 86 °C

Query: Moving on to CC(C)(C(O)c1ccc(Br)cc1)[N+](=O)[O-] (stereo unspecified)
Result: 106 to 108 °C

Query: Moving on to CNC(=O)c1ccc([N+](=O)[O-])cc1Cl
Result: 166 to 168 °C

Query: Moving on to Cc1nc(NC(=O)CCl)sc1C
Result: 144 to 146 °C

Query: Moving on to Cc1cc(N)n(-c2ccc(C(F)(F)F)cn2)n1
Result: 119 to 121 °C

###

reported-endpoint: melting point

// known answers, use as guide
O=C(CC1CCCC1)c1ccc(Oc2ccccc2)cc1    30 to 32 °C
Oc1ccc2cncnc2c1    216 to 218 °C
Nc1cc(N2CCCS2(=O)=O)ccc1F    102 to 104 °C
O=C(O)c1ccc(F)c(S(=O)(=O)NC2CC2)c1    226 to 228 °C
OCC1NCCc2ccccc21 (centres undefined)    71 to 73 °C

Query: Bench note: what melting point did Cc1cc(C(=O)O)ccc1S(=O)(=O)Cl show?
Result: 197 to 199 °C

Query: Moving on to CCNC(=O)Nc1cc(F)ccc1N
Result: 147 to 149 °C

Query: Moving on to COCCOc1ccc(Cl)cc1C(=O)O
Result: 68 to 70 °C

Query: Moving on to Cc1c(NC(C)C(C)C)cccc1C(=O)O (centres undefined)
Result: 90 to 92 °C

Query: Moving on to CC(C)(C)c1cnc(N)s1
Result: 79 to 81 °C

Query: Moving on to CC(c1ccccc1)c1ccc(O)cc1 (centres undefined)
Result: 57 to 59 °C

Query: Moving on to Clc1nc(-c2cccnc2)nc2sc3c(c12)CCCC3
Result: 137 to 139 °C

Query: Moving on to Nc1nccnc1Br
Result: 129 to 131 °C

###

Overview of reported melting point across a group of molecules:

// known answers, use as guide
NC(=O)CCC(NC(=O)CCC1CCCC1)C(=O)O (configuration not stated)    146 to 148 °C
CC(C)C(O)Cc1ccccc1Br (configuration not stated)    73 to 75 °C
Clc1nc(-c2ccsc2)nc2sc3c(c12)CCCC3    148 to 150 °C
CN1C(=C(C#N)C(=O)CCl)Nc2ccccc21    244 to 246 °C
O=C(O)CCCN1C(=S)CSC1=S    122 to 124 °C
Nc1nc2c(Br)cc(OC(F)(F)F)cc2s1    202 to 204 °C
O=C(O)c1ccc(NS(=O)(=O)c2cccs2)cc1    226 to 228 °C
CC(C)n1cc(S(=O)(=O)Cl)cn1    53 to 55 °C
NS(=O)(=O)c1ccc(Br)c(C(=O)O)c1    231 to 233 °C
O=C(O)Cc1cc(Cl)c2c(c1)OCCO2    176 to 178 °C

Query: Bench note: what melting point did Cc1nc(O)nc(C)c1CC(=O)O show?
Result: 271 to 273 °C

Query: Moving on to CCCN(CC)C(=O)c1ccc(C(=O)O)cc1
Result: 121 to 123 °C

Query: Moving on to CN(C)S(=O)(=O)c1ccc(N2CCOCC2)c(N)c1
Result: 174 to 176 °C

Query: Moving on to Fc1cc(Br)c(F)cc1S
Result: 47 to 49 °C

Query: Moving on to CC1(C)CCc2c(sc(N)c2C(N)=O)C1
Result: 144 to 146 °C

Query: Moving on to NC(=O)Cn1cc([N+](=O)[O-])cn1
Result: 167 to 169 °C

Query: Moving on to CCn1c(SCC(=O)O)nnc1-c1ccco1
Result: 173 to 175 °C

###

reported-endpoint: melting point

// known answers, use as guide
COc1ccc(-c2nc(C(=O)O)cs2)cc1OC    204 to 206 °C
O=C(Cc1nc2ccccc2[nH]1)c1ccccc1    180 to 182 °C
O=C(O)c1ccccc1OCc1cccnc1    160 to 162 °C
O=C(O)c1ccc(-c2ccc(Cl)cc2)cc1F    251 to 253 °C
Cc1cc(N)nn1-c1ccccc1    79 to 81 °C

Query: Bench note: what melting point did CCOC(=O)c1ncsc1NC show?
Result: 92 to 94 °C

Query: Moving on to CSc1cccc(NC2CCN(C)CC2)c1
Result: 76 to 78 °C

Query: Moving on to c1n[nH]c2cc3c(cc12)OCO3
Result: 199 to 201 °C

Query: Moving on to Cc1nc(N2CCCCC2)sc1C=O
Result: 113 to 115 °C

Query: Moving on to CC(C)CN1CCOC(CNC(=O)CCl)C1 (centres undefined)
Result: 83 to 85 °C

Query: Moving on to CCOC(=O)C(=O)C=Cc1ccsc1
Result: 53 to 55 °C

Query: Moving on to CCOC(=O)c1cc(N2CCNC(=O)C2)ccc1N
Result: 126 to 128 °C

Query: Moving on to Nc1ccc(C(=O)O)nc1Cl
Result: 214 to 216 °C

Query: Moving on to O=C(O)c1ccccc1-n1cnnn1
Result: 190 to 194 °C
